The measurements presented in this section are drawn from the supplement of paper PMC5998384.

- System: HeLa Kyoto;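 further: synchronized HeLa Kyoto cells (double thymidine block for G1/S, nocodazole release for mitosis), protein amounts in NP-40 versus SDS lysates quantified by mass spectrometry, three biological replicates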
- Assay Method Text: solubility change mitosis vs G1/S (difference of NP-40 vs SDS log2 ratios) (log2 ratio difference); higher = more soluble in mitosis
Entries annotated with measured solubility change mitosis (log2)
Give your answer as a number; write no unit.

INSERT INTO assay_data (query_sequence, observed_result) VALUES
  ('MGKSCKVVVCGQASVGKTSILEQLLYGNHVVGSEMIETQEDIYVGSIETDRGVREQVRFYDTRGLRDGAELPRHCFSCTDGYVLVYSTDSRESFQRVELLKKEIDKSKDKKEVTIVVLGNKCDLQEQRRVDPDVAQHWAKSEKVKLWEVSVADRRSLLEPFVYLASKMTQPQSKSAFPLSRKNKGSGSLDG [NKIRAS2]', -0.0114);

Prompt line: Give solubility change mitosis (log2) for the following sequence: MSVGFIGAGQLAYALARGFTAAGILSAHKIIASSPEMNLPTVSALRKMGVNLTRSNKETVKHSDVLFLAVKPHIIPFILDEIGADVQARHIVVSCAAGVTISSVEKKLMAFQPAPKVIRCMTNTPVVVQEGATVYATGTHALVEDGQLLEQLMSSVGFCTEVEEDLIDAVTGLSGSGPAYAFMALDALADGGVKMGLPRRLAIQLGAQALLGAAKMLLDSEQHPCQLKDNVCSPGGATIHALHFLESGGFRSLLINAVEASCIRTRELQSMADQEKISPAALKKTLLDRVKLESPTVSTLTPSSPGKLLTRSLALGGKKD [PYCR2]
Response line: -0.0672

Prompt line: Give solubility change mitosis (log2) for the following sequence: MAAPAPGAGAASGGAGCSGGGAGAGAGSGSGAAGAGGRLPSRVLELVFSYLELSELRSCALVCKHWYRCLHGDENSEVWRSLCARSLAEEALRTDILCNLPSYKAKIRAFQHAFSTNDCSRNVYIKKNGFTLHRNPIAQSTDGARTKIGFSEGRHAWEVWWEGPLGTVAVIGIATKRAPMQCQGYVALLGSDDQSWGWNLVDNNLLHNGEVNGSFPQCNNAPKYQIGERIRVILDMEDKTLAFERGYEFLGVAFRGLPKVCLYPAVSAVYGNTEVTLVYLGKPLDG [FBXO45]
Response line: -0.17

Prompt line: Give solubility change mitosis (log2) for the following sequence: MTMDGDSSTTDASQLGISADYIGGSHYVIQPHDDTEDSMNDHEDTNGSKESFREQDIYLPIANVARIMKNAIPQTGKIAKDAKECVQECVSEFISFITSEASERCHQEKRKTINGEDILFAMSTLGFDSYVEPLKLYLQKFREAMKGEKGIGGAVTATDGLSEELTEEAFTNQLPAGLITTDGQQQNVMVYTTSYQQISGVQQIQFS [NFYB]
Response line: 0.064

Prompt line: Give solubility change mitosis (log2) for the following sequence: MAALGRPFSGLPLSGGSDFLQPPQPAFPGRAFPPGADGAELAPRPGPRAVPSSPAGSAARGRVSVHCKKKHKREEEEDDDCPVRKKRITEAELCAGPNDWILCAHQDVEGHGVNPSVSGLSIPGILDVICEEMDQTTGEPQCEVARRKLQEIEDRIIDEDEEVEADRNVNHLPSLVLSDTMKTGLKREFDEVFTKKMIESMSRPSMELVLWKPLPELLSDKPKPSSNTKNYTGESQAKHVAAGTAFPQRTELFSEPRPTGMSLYNSLETATSTEEEMEL [CCDC117]
Response line: 0.183

Prompt line: Give solubility change mitosis (log2) for the following sequence: MERPSLRALLLGAAGLLLLLLPLSSSSSSDTCGPCEPASCPPLPPLGCLLGETRDACGCCPMCARGEGEPCGGGGAGRGYCAPGMECVKSRKRRKGKAGAAAGGPGVSGVCVCKSRYPVCGSDGTTYPSGCQLRAASQRAESRGEKAITQVSKGTCEQGPSIVTPPKDIWNVTGAQVYLSCEVIGIPTPVLIWNKVKRGHYGVQRTELLPGDRDNLAIQTRGGPEKHEVTGWVLVSPLSKEDAGEYECHASNSQGQASASAKITVVDALHEIPVKKGEGAEL [IGFBP7]
Response line: 0.407

Prompt line: Give solubility change mitosis (log2) for the following sequence: MAAVVAATALKGRGARNARVLRGILAGATANKASHNRTRALQSHSSPEGKEEPEPLSPELEYIPRKRGKNPMKAVGLAWYSLYTRTWLGYLFYRQQLRRARNRYPKGHSKTQPRLFNGVKVLPIPVLSDNYSYLIIDTQAQLAVAVDPSDPRAVQASIEKEGVTLVAILCTHKHWDHSGGNRDLSRRHRDCRVYGSPQDGIPYLTHPLCHQDVVSVGRLQIRALATPGHTQGHLVYLLDGEPYKGPSCLFSGDLLFLSGCGRTFEGNAETMLSSLDTVLGLGDDTLLWPGHEYAEENLGFAGVVEPENLARERKMQWVQRQRLERKGTCPSTLGEERSYNPFLRTHCLALQEALGPGPGPTGDDDYSRAQLLEELRRLKDMHKSK [PNKD]
Response line: -0.135

Prompt line: Give solubility change mitosis (log2) for the following sequence: MPGRHVSRVRALYKRVLQLHRVLPPDLKSLGDQYVKDEFRRHKTVGSDEAQRFLQEWEVYATALLQQANENRQNSTGKACFGTFLPEEKLNDFRDEQIGQLQELMQEATKPNRQFSISESMKPKF [SDHAF3]
Response line: 0.134
